biological target: Procathepsin L (Homo sapiens, UniProt P07711)
Sequence (P07711 whole entry): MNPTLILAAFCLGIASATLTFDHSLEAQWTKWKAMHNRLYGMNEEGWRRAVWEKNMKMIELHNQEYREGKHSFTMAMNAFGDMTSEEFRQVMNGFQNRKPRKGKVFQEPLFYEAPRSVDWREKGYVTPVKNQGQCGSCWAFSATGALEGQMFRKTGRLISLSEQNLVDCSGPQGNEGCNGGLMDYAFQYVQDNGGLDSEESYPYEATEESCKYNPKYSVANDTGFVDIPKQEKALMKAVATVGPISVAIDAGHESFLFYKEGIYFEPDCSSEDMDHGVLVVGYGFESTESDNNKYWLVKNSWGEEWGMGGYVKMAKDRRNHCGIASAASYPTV
parameter: IC50

**Query** Tell me IC50 of CCCC[C@@H](C=O)NC(=O)[C@H](CC(C)C)NC(=O)OCc1ccccc1 when tested on Procathepsin L (Homo sapiens, UniProt P07711).
**Result** 44 nM

---

target: 1-phosphatidylinositol 3-phosphate 5-kinase (Homo sapiens)
Sequence (Q9Y2I7 whole entry): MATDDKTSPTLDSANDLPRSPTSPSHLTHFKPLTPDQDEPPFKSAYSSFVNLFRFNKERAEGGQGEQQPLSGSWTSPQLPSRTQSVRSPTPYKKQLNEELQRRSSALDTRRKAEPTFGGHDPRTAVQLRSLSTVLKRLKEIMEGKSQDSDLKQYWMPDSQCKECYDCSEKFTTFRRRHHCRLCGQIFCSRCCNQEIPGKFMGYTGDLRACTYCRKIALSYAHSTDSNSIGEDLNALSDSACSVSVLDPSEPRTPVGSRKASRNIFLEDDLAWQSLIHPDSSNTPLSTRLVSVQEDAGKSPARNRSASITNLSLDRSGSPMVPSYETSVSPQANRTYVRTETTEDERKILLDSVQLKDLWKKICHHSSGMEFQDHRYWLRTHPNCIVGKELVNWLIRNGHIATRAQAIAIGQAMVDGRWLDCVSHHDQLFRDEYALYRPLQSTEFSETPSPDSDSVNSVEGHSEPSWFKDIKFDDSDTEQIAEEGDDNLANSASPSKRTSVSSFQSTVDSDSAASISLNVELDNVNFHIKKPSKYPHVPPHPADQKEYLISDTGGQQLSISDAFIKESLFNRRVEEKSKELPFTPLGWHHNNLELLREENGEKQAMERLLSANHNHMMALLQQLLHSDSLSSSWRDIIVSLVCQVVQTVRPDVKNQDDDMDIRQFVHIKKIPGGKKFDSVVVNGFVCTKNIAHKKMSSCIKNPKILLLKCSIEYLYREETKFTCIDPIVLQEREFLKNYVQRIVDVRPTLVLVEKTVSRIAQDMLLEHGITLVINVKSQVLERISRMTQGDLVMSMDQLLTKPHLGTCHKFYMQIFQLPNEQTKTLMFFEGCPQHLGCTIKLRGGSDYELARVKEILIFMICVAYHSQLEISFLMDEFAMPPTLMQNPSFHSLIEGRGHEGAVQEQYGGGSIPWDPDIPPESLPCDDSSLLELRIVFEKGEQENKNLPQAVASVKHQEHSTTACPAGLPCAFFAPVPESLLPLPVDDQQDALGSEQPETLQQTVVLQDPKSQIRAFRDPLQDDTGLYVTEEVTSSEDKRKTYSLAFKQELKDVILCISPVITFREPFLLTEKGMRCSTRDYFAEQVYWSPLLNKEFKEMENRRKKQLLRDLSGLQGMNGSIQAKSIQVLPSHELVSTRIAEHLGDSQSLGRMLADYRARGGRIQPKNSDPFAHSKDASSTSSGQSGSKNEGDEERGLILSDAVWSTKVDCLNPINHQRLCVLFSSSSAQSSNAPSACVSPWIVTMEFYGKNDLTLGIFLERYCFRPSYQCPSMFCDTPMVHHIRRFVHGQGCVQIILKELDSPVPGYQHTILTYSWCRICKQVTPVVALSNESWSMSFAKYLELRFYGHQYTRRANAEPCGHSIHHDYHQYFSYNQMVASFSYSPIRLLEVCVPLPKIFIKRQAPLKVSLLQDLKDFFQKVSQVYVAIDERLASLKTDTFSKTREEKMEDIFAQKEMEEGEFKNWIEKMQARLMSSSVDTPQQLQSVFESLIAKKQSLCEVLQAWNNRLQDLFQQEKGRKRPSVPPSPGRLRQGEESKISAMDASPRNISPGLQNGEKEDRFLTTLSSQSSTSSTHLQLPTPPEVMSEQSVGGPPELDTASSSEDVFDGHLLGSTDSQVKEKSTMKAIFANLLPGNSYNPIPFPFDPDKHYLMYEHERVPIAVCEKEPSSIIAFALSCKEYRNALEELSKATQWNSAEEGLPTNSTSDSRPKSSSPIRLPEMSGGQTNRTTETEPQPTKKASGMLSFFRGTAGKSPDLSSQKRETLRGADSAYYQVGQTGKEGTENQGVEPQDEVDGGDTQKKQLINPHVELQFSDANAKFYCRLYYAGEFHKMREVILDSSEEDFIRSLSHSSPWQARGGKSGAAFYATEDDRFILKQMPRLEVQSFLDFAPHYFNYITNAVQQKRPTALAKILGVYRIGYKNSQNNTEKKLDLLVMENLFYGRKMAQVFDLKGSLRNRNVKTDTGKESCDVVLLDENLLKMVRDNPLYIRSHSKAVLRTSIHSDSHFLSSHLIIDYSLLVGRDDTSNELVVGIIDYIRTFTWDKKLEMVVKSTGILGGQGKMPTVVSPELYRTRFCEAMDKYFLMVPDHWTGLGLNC
parameter: IC50 (nM)
Please state the figure in nM; there is no need to write the unit.

**Query** Give IC50 for this entry on 1-phosphatidylinositol 3-phosphate 5-kinase (Homo sapiens): COc1ccc2[nH]c(C)c(/C=C/C(=O)c3ccncc3)c2c1
**Result** 5.1
